The reported numbers originate from paper PMC4116524.

# TARGET DESC: UniProt:P42338
# Sequence (P42338 whole entry): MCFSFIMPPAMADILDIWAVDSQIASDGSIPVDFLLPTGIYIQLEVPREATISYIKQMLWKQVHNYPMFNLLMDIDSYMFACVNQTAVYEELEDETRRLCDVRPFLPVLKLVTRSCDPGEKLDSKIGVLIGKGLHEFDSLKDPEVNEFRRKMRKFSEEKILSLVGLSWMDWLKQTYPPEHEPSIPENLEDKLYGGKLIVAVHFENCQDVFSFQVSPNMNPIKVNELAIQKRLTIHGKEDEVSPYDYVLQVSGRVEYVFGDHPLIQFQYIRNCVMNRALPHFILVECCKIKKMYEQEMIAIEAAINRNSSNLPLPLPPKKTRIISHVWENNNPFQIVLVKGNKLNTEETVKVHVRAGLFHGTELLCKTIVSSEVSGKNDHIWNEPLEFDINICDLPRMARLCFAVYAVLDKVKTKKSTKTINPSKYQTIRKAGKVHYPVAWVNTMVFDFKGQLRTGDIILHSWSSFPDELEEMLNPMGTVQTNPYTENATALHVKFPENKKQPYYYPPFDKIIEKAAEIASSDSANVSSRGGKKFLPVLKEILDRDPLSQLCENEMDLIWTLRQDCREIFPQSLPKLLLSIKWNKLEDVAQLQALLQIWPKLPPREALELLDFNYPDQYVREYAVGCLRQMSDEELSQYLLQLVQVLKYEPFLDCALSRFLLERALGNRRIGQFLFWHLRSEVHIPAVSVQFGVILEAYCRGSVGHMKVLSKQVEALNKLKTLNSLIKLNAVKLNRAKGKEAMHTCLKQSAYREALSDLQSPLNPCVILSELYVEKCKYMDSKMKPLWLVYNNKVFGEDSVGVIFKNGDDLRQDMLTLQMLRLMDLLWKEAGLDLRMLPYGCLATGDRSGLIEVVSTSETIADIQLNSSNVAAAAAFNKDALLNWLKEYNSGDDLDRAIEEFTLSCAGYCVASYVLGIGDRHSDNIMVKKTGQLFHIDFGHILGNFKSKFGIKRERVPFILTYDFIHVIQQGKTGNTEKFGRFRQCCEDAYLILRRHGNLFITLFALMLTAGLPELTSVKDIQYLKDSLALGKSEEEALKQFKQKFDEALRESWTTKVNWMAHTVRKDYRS
# Sequence (P27986 whole entry partner): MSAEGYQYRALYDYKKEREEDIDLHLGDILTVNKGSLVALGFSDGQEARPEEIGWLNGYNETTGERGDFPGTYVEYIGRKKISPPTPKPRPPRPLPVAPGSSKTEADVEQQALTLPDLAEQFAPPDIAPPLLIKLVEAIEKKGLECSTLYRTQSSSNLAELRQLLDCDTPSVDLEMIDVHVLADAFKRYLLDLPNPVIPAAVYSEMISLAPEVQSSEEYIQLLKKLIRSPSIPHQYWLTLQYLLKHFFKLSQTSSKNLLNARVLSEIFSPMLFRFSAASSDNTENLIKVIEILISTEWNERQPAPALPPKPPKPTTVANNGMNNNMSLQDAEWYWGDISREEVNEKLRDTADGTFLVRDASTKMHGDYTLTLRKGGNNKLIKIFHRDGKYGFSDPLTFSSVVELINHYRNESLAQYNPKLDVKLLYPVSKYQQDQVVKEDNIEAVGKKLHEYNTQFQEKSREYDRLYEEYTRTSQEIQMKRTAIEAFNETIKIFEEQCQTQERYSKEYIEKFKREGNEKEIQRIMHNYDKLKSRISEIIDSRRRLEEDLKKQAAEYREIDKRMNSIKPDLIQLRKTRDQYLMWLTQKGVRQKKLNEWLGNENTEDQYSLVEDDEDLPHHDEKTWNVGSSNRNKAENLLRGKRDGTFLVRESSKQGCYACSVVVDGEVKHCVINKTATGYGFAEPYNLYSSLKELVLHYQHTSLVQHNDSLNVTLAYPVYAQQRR
# PROTOCOL DETAILS: Kinase activity in cell-free assay (HotSpot)
MEASURED ATTRIBUTE: IC50 (µM)
Please reply with the bare figure in µM and do not write the unit itself.

Jot down IC50 (UniProt:P42338) of O=C1NC(=O)C(=CC=Cc2cccs2)C(=O)N1 [C96] .
134

----------
# TARGET DESC: UniProt P48736
# Sequence (P48736 whole entry): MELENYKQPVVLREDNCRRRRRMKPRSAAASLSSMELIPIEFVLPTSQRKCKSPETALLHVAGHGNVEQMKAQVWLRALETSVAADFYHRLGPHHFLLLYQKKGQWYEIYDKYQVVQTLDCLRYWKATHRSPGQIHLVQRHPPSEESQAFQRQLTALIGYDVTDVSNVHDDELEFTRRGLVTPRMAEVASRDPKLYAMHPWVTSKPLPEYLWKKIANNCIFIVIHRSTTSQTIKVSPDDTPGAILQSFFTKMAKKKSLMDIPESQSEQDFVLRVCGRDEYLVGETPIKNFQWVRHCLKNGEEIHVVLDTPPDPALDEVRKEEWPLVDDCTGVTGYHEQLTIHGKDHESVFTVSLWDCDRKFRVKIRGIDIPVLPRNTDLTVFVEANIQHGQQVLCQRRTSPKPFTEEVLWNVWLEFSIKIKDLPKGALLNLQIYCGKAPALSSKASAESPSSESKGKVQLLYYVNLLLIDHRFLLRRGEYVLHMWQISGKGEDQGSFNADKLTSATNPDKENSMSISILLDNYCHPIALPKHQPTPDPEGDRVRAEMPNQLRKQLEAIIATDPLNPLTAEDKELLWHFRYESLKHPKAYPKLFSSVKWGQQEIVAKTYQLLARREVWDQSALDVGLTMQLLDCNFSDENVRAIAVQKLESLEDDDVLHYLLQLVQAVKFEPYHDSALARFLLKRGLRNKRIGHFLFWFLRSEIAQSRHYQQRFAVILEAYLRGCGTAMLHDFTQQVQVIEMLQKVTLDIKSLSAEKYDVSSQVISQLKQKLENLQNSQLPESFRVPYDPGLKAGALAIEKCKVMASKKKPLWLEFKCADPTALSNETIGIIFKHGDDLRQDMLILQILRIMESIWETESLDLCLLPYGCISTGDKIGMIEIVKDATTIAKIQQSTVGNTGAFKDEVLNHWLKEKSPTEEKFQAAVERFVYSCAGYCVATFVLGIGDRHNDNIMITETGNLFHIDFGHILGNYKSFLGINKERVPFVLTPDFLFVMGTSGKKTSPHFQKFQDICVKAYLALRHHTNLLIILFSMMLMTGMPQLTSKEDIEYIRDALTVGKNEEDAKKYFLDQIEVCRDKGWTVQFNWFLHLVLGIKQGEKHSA
# PROTOCOL DETAILS: Kinase activity in cell-free assay (HotSpot)
# Experimental: Kinase activity in the presence of C96 was performed by using the HotSpot technology (Reaction Biology Corp., Malvern, PA, USA). Briefly, kinases (PI3Kα, β, δ, γ, AKT1, 2, 3, and mTOR) and substrates were diluted in reaction buffer. Subsequently, 5 nL of serially diluted C96 (in pure DMSO) was delivered into diluted kinase and substrate mixture by using Echo 550 (LabCyte Inc. Sunnyvale, CA). […]
MEASURED ATTRIBUTE: IC50 (µM)
Reply with just the number (in µM).

Check UniProt P48736 data and give IC50 for O=C1NC(=O)C(=CC=Cc2cccs2)C(=O)N1 [C96] .
116
